Ok so here's the combined literature set: pKi for Prothrombin (Homo sapiens).
To interpret pKi, take it as minus log10 of a concentration measured in moles per litre.

>>> df
                                   compound  obs_value
0  CCCCN1CC(=O)N(CC(=O)N[C@@H](CC2CCCN(C(=N)N)C2)C(=O)c2nccs2)[C@H](Cc2ccccc2)C1=O (stereo partly specified)       7.49
1  CCc1nc2ccc(OC3CCN(C(C)=N)CC3)cc2n1Cc1ccc(-c2cccc(C(=N)N)c2)cc1       6.11
2  CN(C(=O)[C@H](CC#Cc1cccc(N)c1)NS(=O)(=O)c1ccc2ccccc2c1)C1CCCC1       5.66
3  Nc1cc(C2=NOC(CNS(=O)(=O)CC(F)(F)F)(C(=O)Nc3ccc(-c4ccccc4S(N)(=O)=O)cn3)C2)ccc1Cl (racemic)       5.18
4  N[C@H]1CC[C@H](C(NC(=O)[C@@H]2CC[C@H]3CN(S(=O)(=O)Cc4ccccc4)CC(=O)N32)C(=O)c2nc3ccccc3s2)CC1 (stereo partly specified)       9.14
5  COc1ccccc1CNC(=O)Cn1c(Cl)cnc(NCC(F)(F)c2cccc[n+]2[O-])c1=O       8.52

Input: What value of measured pKi is listed for CCOc1cc(O[C@H]2CCOC2)cc(C(Nc2ccc(C(=N)N)cc2)C(=O)O)c1 (stereo partly specified) ?
Output: 5.07

Input: What value of measured pKi is listed for CC(C)c1cc(C(C)C)c(S(=O)(=O)N[C@@H](Cc2cccc(C(=N)N)c2)C(=O)N2CCN(C(=O)CCCN)CC2)c(C(C)C)c1 ?
Output: 5.03

Input: What value of measured pKi is listed for C[C@H](CS)C(=O)N1CCC[C@H]1C(=O)O ?
Output: 7.32

Input: What value of measured pKi is listed for N=C(N)c1ccc(Oc2ccc(C(=O)NCCCN)c(Oc3ccc(C(=N)N)cc3)n2)cc1 ?
Output: 5.68

Input: What value of measured pKi is listed for N=C(N)NCCC(=O)Nc1ccc(S(=O)(=O)N[C@@H](Cc2cccc(C(=N)N)c2)C(=O)N2CCC(CCNC(=N)N)CC2)cc1 ?
Output: 5.74

---

Ok so here's the combined literature set: pKi for Prothrombin (Homo sapiens, UniProt P00734).
To interpret pKi, take it as minus log10 of a concentration measured in moles per litre.

                                   compound  obs_value
0  N=C(N)NCCCC(NC(=O)[C@@H]1CC[C@H]2CN(C(=O)OCc3ccccc3)CC(=O)N21)C(=O)c1nccs1 (stereo partly drawn)       7.30
1  Cc1cccc2c1cc(C(=O)NCc1ccc([N+](C)(C)Cc3ccccc3)cc1)n2Cc1cccc(C(=N)N)c1       5.41
2  CCOC(=O)N1CCN(C(=O)[C@H](Cc2ccc(C(N)NN)cc2)NS(=O)(=O)c2ccc3ccccc3c2)CC1 (stereo partly drawn)       5.48

Input: # value lookup — system Prothrombin (Homo sapiens, UniProt P00734), readout pKi, item NC(N)=NOCCNC(=O)Cc1c(Cl)ccc(NCC(F)(F)c2cccnc2)c1F
Output: 7.47

Input: # value lookup — system Prothrombin (Homo sapiens, UniProt P00734), readout pKi, item Cc1cc(OCCc2cc(Cl)ccc2-n2cncn2)cc(C(=O)N(CC(C)C)CC(C)C)c1
Output: 9.03

---

Ok so here's the combined literature set: pKi for Prothrombin (Homo sapiens, UniProt P00734).
To interpret pKi, take it as minus log10 of a concentration measured in moles per litre.

In the examples that follow, each entry is paired with its recorded pKi.
                                   molecule  measure  obs_value
0  N=C(N)c1ccc(CNC(=O)[C@@H]2Cc3ccc(cc3)CNC(=O)CN3CCN(CC3)CC(=O)NCc3ccc(cc3)C[C@@H](NS(=O)(=O)Cc3ccccc3)C(=O)N2)cc1      pKi       5.45
1  N=C(N)c1cccc(C[C@H](NS(=O)(=O)c2ccc(Cc3ccncc3)cc2)C(=O)N2CCC(CCN=C(N)N)CC2)c1      pKi       6.57
2  N=C(N)c1ccc2sc(C(=O)N3CCN(C(=O)COc4ccc(OCC(=O)N5CCN(C(=O)c6cc7cc(C(=N)N)ccc7s6)CC5)cc4)CC3)cc2c1      pKi       4.66
3  C[S+]([O-])Cc1csc(C(=O)Nc2ccc(Cl)cc2C(=O)Nc2ccc(Cl)cc2)c1Cl (configuration not stated)      pKi       6.01

Turning now to a further molecule:
Input: What value of measured pKi is listed for COc1ccc(-n2nc(C(F)(F)F)cc2C(=O)Nc2ccc(-c3ccccc3S(C)(=O)=O)cc2)c(CN)c1 ?
Output: 5.04

---

Ok so here's the combined literature set: Ki for Prothrombin (Homo sapiens, UniProt P00734).
# unit: nM | format: bare number

In the examples that follow, each entry is paired with its recorded Ki.
>>> df
                                test_smiles  obs_value
0  CN(CCOCCO)Cc1csc(C(=O)Nc2ccc(Cl)cc2C(=O)Nc2ccc(Cl)cc2)c1Cl       1100
1  CNC(=O)NCCC1CCN(C(=O)[C@H](Cc2nc3ccccc3s2)NS(=O)(=O)c2cccc3c2NCC(C)(C)C3)CC1         24
2  N=C(N)NCCC(=O)N1CCN(C(=O)[C@H](Cc2cccc(C(=N)N)c2)NS(=O)(=O)c2ccc(-c3ccccc3)cc2)CC1        580

Turning now to a further compound:
Input: What value of measured Ki is listed for O=C(CCS(=O)(=O)c1ccc2cc(Cl)ccc2c1)N1CCC(N2Cc3cnc(CO)n3C2=O)CC1 ?
Output: 7800

---

Ok so here's the combined literature set: Ki for Prothrombin (Homo sapiens, UniProt P00734).
Please use T for Ki under 2000 nM and F for everything else, ties included.

// below: answered compounds
In [3]: df
Out[3]:
                                   compound                               test_system  cat
0  CN(C(=O)[C@H](CC#Cc1ccc(N)cc1)NS(=O)(=O)c1ccc2ccccc2c1)C1CCCC1  Prothrombin (Homo sapiens, UniProt P00734)    T
1  N=C(N)c1cccc(C2=NOC(Cn3ncnn3)(C(=O)Nc3ccc(-c4ccccc4S(N)(=O)=O)cc3)C2)c1 (configuration not stated)  Prothrombin (Homo sapiens, UniProt P00734)    F
2  Cc1cc2cc(N=C(NC(=O)c3ccc(C(=O)N(C)C)nc3)N[C@H]3CCCCN(CC(=O)N4CCCC4)C3=O)ccc2o1  Prothrombin (Homo sapiens, UniProt P00734)    F
3  CC(C)(CNc1ccc(Cl)c(CC(=O)NCCONC(=N)N)c1F)c1cccnc1  Prothrombin (Homo sapiens, UniProt P00734)    T
4  Cc1cc(C(=O)Nc2ccc(-c3ccccc3S(N)(=O)=O)cc2)n(-c2cccc(C(N)=O)c2)n1  Prothrombin (Homo sapiens, UniProt P00734)    F

Input: Ki strictly < 2000 nM for this compound? COc1ccc(-n2nc(N(C)C)c3c2C(=O)N(c2ccc(-c4ccccc4CN4CC[C@@H](O)C4)cc2)CC3)cc1
Output: T

Input: Ki strictly < 2000 nM for this compound? Nc1ncc(CCCNC(=O)[C@@H]2CCCN2C(=O)[C@H](N)C(c2ccccc2)c2ccccc2)s1
Output: T

---

Ok so here's the combined literature set: pKi for Prothrombin (Homo sapiens).
To interpret pKi, take it as minus log10 of a concentration measured in moles per litre.

In the examples that follow, each entry is paired with its recorded pKi.
>>> df
                                   compound  measure  obs_value
0  N=C(N)N1CCCC(CNC(=O)CNS(=O)(=O)c2ccc3ccccc3c2)C1 (stereo not drawn)      pKi       6.32
1  CCOC(=O)C(=O)N(Cc1cccc(F)c1)c1ccc2c(c1)OC(C)(COc1ccc(C(=N)N)cc1)CN2C (stereo not drawn)      pKi       7.72
2  C=CCN(C(=O)c1cc(C)cc(OCCCONC(=N)N)c1)C1CCCCC1      pKi       8.05
3  C/C(=N/NC(=N)N)c1cc(OCC(=O)Nc2cc(/C(C)=N\NC(=N)N)cc(/C(C)=N/NC(=N)N)c2)cc(/C(C)=N\NC(=N)N)c1      pKi       6.07
4  Cc1ccc(Cl)cc1CNC(=O)Cn1c(Cl)cnc(NCCc2cccc[n+]2[O-])c1=O      pKi       8.96
5  CO[C@H](COS(=O)(=O)[O-])C(=O)N[C@H](CC(C)C)C(=O)N1[C@H](C(=O)NCCC2=CC[N+](=C(N)N)C2)C[C@@H]2C[C@H](O)[C@@H](O)C[C@@H]21      pKi       6.34

Turning now to a further compound:
Input: What value of measured pKi is listed for CC(=O)N1CCN(C(=O)[C@H](CCCNC(=N)N)NS(=O)(=O)c2cccc3ccccc23)CC1 ?
Output: 6.00
